System: SK-MEL-28 melanoma
Experiment: NCI-60 one-dose screen, 48 h
Conditions: 10 µM
About 83,000 compounds went through this panel and 20% of them were active in at least one assay; those are over-represented in the sample as a whole. The source made the active and inactive calls. Rule for the calls: active = growth percent below 10; inactive = the rest.
Select the matching outcome among yes = active, no = inactive

COc1ccc(Oc2nc(NC3CCCC3)nc(Sc3ccc(OC)cc3)n2)cc1	no

Query :: Field: outcome | Entry: `CCN(CC)CCC(=O)Nc1cccc2c1C(=O)c1c(c(O)c3ccccc3c1O)C2=O`
Result :: no

Query :: Field: outcome | Entry: CC1CN(Cc2ccccc2)C(=O)NC1=O (stereo unspecified)
Result :: no

Query :: Field: outcome | Entry: `COc1ccc2c(c1)C(=O)c1c-2c(OCCN2CCCCC2)nc2ccc(OC)cc12`
Result :: no

Query :: Field: outcome | Entry: S=C1SCC(c2ccccc2)S1 (stereo unspecified)
Result :: no

Query :: Field: outcome | Entry: `O=S(=O)(NCCCNc1nccc(-c2c(-c3ccc(F)cc3)nc3sccn23)n1)c1ccc(F)cc1`
Result :: no

Query :: Field: outcome | Entry: `CC(=O)N1C/C(=C/c2ccc(Cl)cc2)C(=O)/C(=C/c2ccc(Cl)cc2)C1`
Result :: yes
